Origin of the recorded values: patent US20240391954A1

EXPERIMENTAL TARGET: human MC3R (human, UniProt P41968 1-323)
Sequence (P41968 whole entry): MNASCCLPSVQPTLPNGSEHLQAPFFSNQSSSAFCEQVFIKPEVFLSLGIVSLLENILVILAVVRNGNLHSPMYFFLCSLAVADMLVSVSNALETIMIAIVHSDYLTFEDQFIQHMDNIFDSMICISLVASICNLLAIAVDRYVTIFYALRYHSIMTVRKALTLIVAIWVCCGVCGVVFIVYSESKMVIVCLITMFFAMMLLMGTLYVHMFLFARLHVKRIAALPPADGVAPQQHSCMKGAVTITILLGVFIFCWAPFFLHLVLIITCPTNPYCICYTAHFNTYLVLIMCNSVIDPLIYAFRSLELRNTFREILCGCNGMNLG
EXPERIMENTAL DETAILS: cell-based or functional assay
Positions of bridges follow the written chain, without caps; N, C: chain ends. Non-standard residues stand in square brackets, D forms with d. dPhe(4-Br) = N[C@H](Cc1ccc(Br)cc1)C(=O)O; d2Nal = N[C@H](Cc1ccc2ccccc2c1)C(=O)O; Nle = CCCC[C@H](N)C(=O)O
ENDPOINT LABEL: % max activation (%)
Write it as a number; the unit % goes unstated.

As a guide, the following entries are already answered.
query: Request the reported % max activation associated with Ac-R[Nle]CR[dPhe(4-Br)]RFC-NH2 (disulfide 3-8; SMILES CCCC[C@H](NC(=O)[C@H](CCCNC(=N)N)NC(C)=O)C(=O)N[C@H]1CSSC[C@@H](C(N)=O)NC(=O)[C@H](Cc2ccccc2)NC(=O)[C@H](CCCNC(=N)N)NC(=O)[C@@H](Cc2ccc(Br)cc2)NC(=O)[C@H](CCCNC(=N)N)NC1=O) [CTX-1623]
result: 62

query: Request the reported % max activation associated with Ac-CGH[dF]RWC-NH2 (disulfide 1-7; SMILES CC(=O)N[C@H]1CSSC[C@@H](C(N)=O)NC(=O)[C@H](Cc2c[nH]c3ccccc23)NC(=O)[C@H](CCCNC(=N)N)NC(=O)[C@@H](Cc2ccccc2)NC(=O)[C@H](Cc2c[nH]cn2)NC(=O)CNC1=O) [CTX-1206]
result: 94

Note: attention shifts to another entry.
query: Request the reported % max activation associated with Ac-RC[dA]R[dF]R[d2Nal]C-NH2 (disulfide 2-8) [CTX-1264]
result: 44
